Tested on: PIK3CB
conditionSet: concentration: 1 μM, replicates: in singlicate; n = 1;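 also: KINOMEscan kinase panel screen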
%Inh values, listed per item
readoutKind: %Inh (%)

>>> print(df.to_string())
                                   compound  readoutunit  measvalue
0  COc1cccc(C(=O)Nc2cccc(Oc3ccc4nc(NC(=O)C5CC5)cn4n3)c2)c1            %          0
1  COc1cc(Nc2nccc(N3CCC(NC(=O)Nc4cccc(C(C)=O)c4)C3)n2)cc(OC)c1OC (stereo not drawn)            %          0
2  Cc1cccc(NC(=O)Nc2ccc(Oc3ncnc4ccn(C)c34)cc2)c1            %          0

###

System: p38-beta
Construct: gene MAPK11
conditionSet: concentration: 1 μM, replicates: in singlicate; n = 1
Let's look at some molecules and their measured %Inh.
readoutKind: %Inh (%)

>>> print(df.to_string())
                                   molecule  readoutkind  measvalue
0  Cc1ccc(S(=O)(=O)Nc2ccc(Nc3nccc(Nc4cccc5[nH]ncc45)n3)cc2)cc1 [GSK581271]         %Inh          0
1        c1ccc(-c2cnc3nccnn23)cc1 [AH20685]         %Inh          0
2  C[C@@H](Oc1cc(-n2cnc3cc(-c4ccnc(NCCS(C)(=O)=O)c4)ccc32)sc1C(N)=O)c1ccccc1Cl [GSK907232]         %Inh         14
3  O=C(NC1CCN(c2ccnc(Nc3ccc(F)cc3)n2)C1)c1cc2ccccc2s1 (stereo not shown) [GSK1379716]         %Inh          0

###

System: EPHB3
conditionSet: concentration: 1 μM, replicates: in singlicate; n = 1
Use 10% as the dividing line for %Inh, with the line itself on the yes side and lower values as no.

                                   compound  grouplabel
0        Nc1ncnc2c1nc(-c1ccccc1)n2-c1ccccc1         yes
1  COc1cccc(C(=O)Nc2cccc(Oc3ccc4nc(NC(=O)C5CC5)cn4n3)c2)c1          no
2  O=C(Nc1ccccc1F)NC1CCN(c2ccnc(Nc3ccc(F)cc3)n2)CC1         yes
3  Cl.c1ccc(-c2ccc3c(Nc4ccc5[nH]ncc5c4)ccnc3c2)nc1          no
4  COCCOCCOc1cc2ncc3c4ccc(C#N)cc4[nH]c3c2cc1OC         yes
5  COc1cc(Nc2nccc(N3CCC(NC(=O)Nc4cccc(C(C)=O)c4)C3)n2)cc(OC)c1OC (centres unmarked)         yes

###

Tested on: TBK1
conditionSet: concentration: 1 μM, replicates: in singlicate; n = 1
// assign True if %Inh falls strictly below 20%, else False (ties count as False)

>>> print(df.to_string())
                                   compound  experimentalsystem  grouplabel
0      CC(C)(C)c1ccc2nccc(Nc3cccc(O)c3)c2c1                TBK1        True
1  COc1cccc(NC(=O)NC2CCN(c3ccnc(Nc4cc(OC)c(OC)c(OC)c4)n3)C2)c1 (centres unmarked)                TBK1       False
2  CN(c1ccc(NC(=O)Nc2cc(C(F)(F)F)ccc2F)cc1)c1ccnc(Nc2ccc(S(N)(=O)=O)cc2)n1                TBK1       False
3  Cl.Cl.NCC(NCc1ccc(-c2ccnc3[nH]ccc23)s1)c1ccccc1 (centres unmarked)                TBK1        True
4  COc1cc(Nc2nccc(N3CCC(NC(=O)Nc4cccc(C(C)=O)c4)C3)n2)cc(OC)c1OC (centres unmarked)                TBK1       False
5  C[C@@H](Oc1cc(-n2cnc3cc(-c4ccnc(NCCS(C)(=O)=O)c4)ccc32)sc1C(N)=O)c1ccccc1Cl                TBK1        True
6  CNC(=O)c1ccccc1Nc1nc(Nc2ccc(N3CCOCC3)cc2)ncc1Cl.Cl                TBK1       False
7  CN1CCN(Cc2cccc(-c3ccc4c(Nc5ccc(Oc6ccccc6)cc5)ccnc4c3)c2)CC1                TBK1        True
